Assay: protease stability score; higher = more stable; yeast display proteolysis, trypsin and chymotrypsin;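 also: log10 excess protease needed over predicted unfolded state with 0 meaning unfolded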
experimental.readout: protease stability score
Simply state the number, no unit and no words.

Identify measured protease stability score associated with DEHNYTILQEIWEALKTNNKERFDELADPNARFQVGDKEFHGMETAARHLIRRHTEMRLDMKVDDYRLNGDHLSVDAKVRFRVNGQPNHYQMTLHAQIQGDKLKRMVWRIPESVLERIKS 0.66

Identify measured protease stability score associated with DEKKLLDLARVALEYLQRGNSDQFAKMLDEGGQMNVGDTQINGSDQVKKYVKKFKDQGVHVEYKEQEEKGDTVTVKTEAELGDAKVTFEVHYVAKGDRVERVEVRMNKEQITEFKKS 0.272

Identify measured protease stability score associated with DEKQDRDIQRVLHDNNPDHMKKLVDENAHAQVGNKTYHGREQVLTLIEHMVRTVDHMSIDKVEVKNGKADMDYHVNINGQSARVRVDVKFHNGRIKEIRIQATDKEVRDILDEAFD 1.23

Identify measured protease stability score associated with DEDAQELAEQLWTAWETGDPRQIQNLMDPNVNFRYGDKTFQGREHLHRLIKDIQENIRIDYRHYSVDVKGDKASIKINIQLHHDGKPETKTNDLTIHFSGDRIQRVEQNDRQ 0.248

Identify measured protease stability score associated with DEDMSRKAKKFWKAETDGNPQKLKTLIDPNARAHVGDQDLHGRRKIVHWLKHFRDTMRQHWTRYSFDAHGNKVDNRFVVVLQTNGKPERRRNKLTLVFKNGRLVSMRDETKG 0.128

Identify measured protease stability score associated with DDDKVRESVNNMLHAMQNGDHDRFRKMADENVRIEVGDKEYKGREKAAEHIKEVVDRVDHIQVESVKVHNGRARANLNMVVNGHSARATLNVNANNGRVVVVEMDPDQIRKAES -0.629

Identify measured protease stability score associated with DEKDHARHLVKRLLHAIRTGNPDEAMRLAPPNVRVSYGDTQIHGREQFHKWVKTIRDTVDRQRFTIVNVTVHNGQANVSIRYRLNHNGKDDKNEMTARFVEHNGQLKLVSMSRS 0.522

Identify measured protease stability score associated with DDDKIRKDAETFVKILETGNQERAQRMFDENAHMRIGDKTYHGRESVHKAIKTIRDEVDHVQVRHIDIQGEEVIIQMRFDHNGNQDIMTINLVIKNGRIKSATYTRP 0.537

Identify measured protease stability score associated with DQEKLETLARQVFDAFREGDEETFRRLADPNVTAVYGDQKYRGRERVAKWLKDLANQIDHLQLNDVTIQGEKMHFDATVRINGKNRKLVMIVEAENGTLKRVVLSHG 0.166

Identify measured protease stability score associated with DEDVVKEWMTDQRNNNEKRLQSLVDPNAKLEYGDKSIHGDEEMHEWAKKLRESVDHWEVKEYDIHNGTAEADVVVQFNGREIRYQFVAVAHNGSVTSIVYRARDEDFERFLDDIFS 0.165

Identify measured protease stability score associated with DEEDLKNQARDFIEALETGDEDQIARLADPDAEADVGDTKYTGREEVREYMKHISDNVDHIQLKDMKVSGNEITIVAVLNVNGHEFDMEIHIELHNGRAKTIRIDPRAINHMTK 0.746

---

Assay: protease stability score; higher = more stable; yeast display proteolysis, trypsin and chymotrypsin;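 also: log10 excess protease needed over predicted unfolded state with 0 meaning unfolded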
experimental.readout: protease stability score
Simply state the number, no unit and no words.

Identify measured protease stability score associated with EEELADLLRRFLENVKDNDENQLKRNLDPNVRVLVGDKTLHGREDVARWLTKHQREQRVEYRIKEYEIHGNHFNATMQAQNTNNGKPRTFEAVIRVQFRNGRFQVIQIEDKQ 1.39

Identify measured protease stability score associated with DDEKAKEMMKVWKSGDEEDLVRLADENVSVVVGDHRVRGREEFKKWLHRLSEQVDRWKVDSVHAHNGRIQIDAVYVVNGQEFRLTIHVTMRNGRIKTVRAQVTTEDDERKLKKVVS 0.63

Identify measured protease stability score associated with DERNLRVVKHFWHAVRTGDPEEVKRQADKHVRVRIGDKHIEGRETLAHEVREEKNQLENDIQIRDIKVQGDRVHMRVVVVFNIDGRPQSVQITVEAKAHNGKLQSMSQEVPEEVLHEIEK 0.021

Taken from the NTF2 design screens of Basanta et al. (2020).
